Data provenance is patent US9113629B2.

Would you mind telling me the reported GR50 VERPE of each entry?
# Test system: VERPE: bird's-eye speedwell (veronica persica)
# TEST_NAME: Post-emergent Test III, herbicidal activity in wheat and barley
# Format: in vivo
# CONDITION: probit analysis; dose for 50 percent growth reduction; 21 days after application
One number for each entry, in g ai/ha.

{"columns": ["MOLECULE", "GR50 VERPE / g ai/ha"],
 "data": [
  ["Nc1c(F)c(-c2ccc(I)c(F)c2F)nc(C(=O)O)c1Cl [Compound 141]", 14]
]}

Here are 5 molecules. What values of GR50 VERPE were reported for them?
1. Nc1c(F)c(-c2ccc(Br)cc2F)nc(C(=O)O)c1Cl [Compound 163]
2. COC(=O)c1nc(-c2ccc(Br)c(F)c2F)nc(N)c1OC [Compound 122]
3. COC(=O)c1nc(-c2ccc(I)c(F)c2F)c(F)c(N)c1Cl [Compound 99]
4. COc1c(N)nc(-c2ccc(I)cc2F)nc1C(=O)O [Compound 72]
5. Nc1c(F)c(-c2cc(F)c(I)cc2F)nc(C(=O)O)c1Cl [Compound 69]

Result:
1: 13; 2: 1; 3: 8; 4: 1; 5: 1
